Would you mind telling me the reported log10 of IC50 of each entry?
measurementTarget: rat prostate androgen receptor (Rattus norvegicus)
Construct: the supernatant was obtained as cytoplasm fraction; from tissue; host or cells: cytosol (105000×g supernatant) of rat ventral prostate, 24 hours after castration
procedureText: inhibitory activity on binding of ^3 H-mibolerone on rat prostate androgen receptor
runParameters: ^3 H-mibolerone 1 nM, triamcinolone acetonide 5 μM, rat ventral prostate cytosol, 20 hours at 0° C.; read-out: Inhibitory activity on mibolerone specific binding [IC50 (M)]
Hi team, quick reminder: these entries are log10 of IC50 (M).

Data point: COc1cccc(-c2cnc3c(-c4ccc(Sc5ccccc5)cc4)cnn3c2O)c1 ; log10 of IC50 = -6.12

Kindly note the recorded log10 of IC50 for N#Cc1cnc2c(-c3ccc(Sc4ccccc4)cc3)cnn2c1O , which is -7.30

Input CCc1cnc2c(-c3ccc(Sc4ccccc4)cc3)cnn2c1O . Output log10 of IC50: -6.80

Note to self: log10 of IC50 recorded for Cc1cc(-c2cnn3c(O)ccnc23)ccc1Sc1ccccc1 was -7.64

Sample COc1cc(-c2cnn3c(O)ncnc23)ccc1Sc1ccccc1 ; log10 of IC50 observed: -6.82

The measured log10 of IC50 associated with COc1ccccc1-c1cnc2c(-c3ccc(Sc4ccccc4)cc3)cnn2c1O reads -6.52

# compound Oc1c(C2CCCCC2)cnc2c(-c3ccc(Sc4ccccc4)cc3)cnn12 ; its log10 of IC50 = -6.89

Short answer for CC(=O)OCCc1cnc2c(-c3ccc(Sc4ccccc4)cc3)cnn2c1O : log10 of IC50 was -6.78

Recorded log10 of IC50 (compound O=C(O)Cc1cnc2c(-c3ccc(Sc4ccccc4)cc3)cnn2c1O ): -7.66

The reported value for Cc1nc2c(-c3ccc(Sc4ccccc4)cc3)cnn2c(O)c1Cl in terms of log10 of IC50 is -6.24

Briefly, log10 of IC50 measured for COc1cnc2c(-c3ccc(Sc4ccccc4)cc3)cnn2c1O : -6.78

In plain terms, COc1cc(-c2cnn3c(O)c(C(N)=O)cnc23)ccc1Sc1ccccc1 has a documented log10 of IC50 of -7.11

Consider COc1ccc(-c2cnc3c(-c4ccc(Sc5ccccc5)cc4)cnn3c2O)cc1 . Its measured log10 of IC50 is -6.64

Lab book: log10 of IC50 of NC(=O)c1cnc2c(-c3ccc(Sc4ccccc4)cc3)cnn2c1O noted as -7.12

The reported value for Oc1ncnc2c(-c3ccc(Sc4ccccc4)cc3)cnn12 in terms of log10 of IC50 is -6.34

For this compound ( Cc1cc(O)n2ncc(-c3ccc(Sc4ccccc4)cc3)c2n1 ), measured log10 of IC50 is -6.30

For this compound ( CC(O)c1cnc2c(-c3ccc(Sc4ccccc4)cc3)cnn2c1O (stereo not shown) ), measured log10 of IC50 is -6.81

For this compound ( OCCc1cnc2c(-c3ccc(Sc4ccccc4)cc3)cnn2c1O ), measured log10 of IC50 is -7.41

----------
For each record, write down the corresponding IC50.
measurementTarget: rat prostate androgen receptor (Rattus norvegicus, UniProt P15207)
Construct: the supernatant was obtained as cytoplasm fraction; from tissue; host or cells: cytosol (105000×g supernatant) of rat ventral prostate, 24 hours after castration
procedureText: inhibitory activity on binding of ^3 H-mibolerone on rat prostate androgen receptor
runParameters: ^3 H-mibolerone 1 nM, triamcinolone acetonide 5 μM, rat ventral prostate cytosol, 20 hours at 0° C.; read-out: Inhibitory activity on mibolerone specific binding [IC50 (M)]
I only need the number, in M, no unit after it.

Value of IC50 reported for the compound O=C(Nc1ccccc1)c1cnc2c(-c3ccc(Sc4ccccc4)cc3)cnn2c1O is 3e-06

In plain terms, CCOC(=O)c1cnc2c(-c3ccc(Sc4ccccc4)c(OC)c3)cnn2c1O has a documented IC50 of 2e-07

Note to self: IC50 recorded for CCOC(=O)Cc1cnc2c(-c3ccc(Sc4ccccc4)cc3)cnn2c1O was 2.8e-07

Lab book: IC50 of O=C(O)CCc1cnc2c(-c3ccc(Sc4ccccc4)cc3)cnn2c1O noted as 1.3e-07

# IC50 of O=C(c1ccccc1)c1cnc2c(-c3ccc(Sc4ccccc4)cc3)cnn2c1O = 1.3e-06

----------
measurementTarget: rat prostate androgen receptor (Rattus norvegicus)
Construct: the supernatant was obtained as cytoplasm fraction; from tissue; host or cells: cytosol (105000×g supernatant) of rat ventral prostate, 24 hours after castration
procedureText: inhibitory activity on binding of ^3 H-mibolerone on rat prostate androgen receptor
runParameters: ^3 H-mibolerone 1 nM, triamcinolone acetonide 5 μM, rat ventral prostate cytosol, 20 hours at 0° C.; read-out: Inhibitory activity on mibolerone specific binding [IC50 (M)]
Consider the following molecules; for each one, report its IC50.

Documented IC50 of Oc1c(Cc2ccccc2)cnc2c(-c3ccc(Sc4ccccc4)cc3)cnn12 : 2.5e-08 M

Record Oc1c(CCc2ccccc2)cnc2c(-c3ccc(Sc4ccccc4)cc3)cnn12 , field IC50: > 5e-06 M

Kindly note the recorded IC50 for Oc1c2c(nc3c(-c4ccc(Sc5ccccc5)cc4)cnn13)CCC2 , which is 4.2e-07 M

Oc1c(Cl)cnc2c(-c3ccc(Sc4ccccc4)cc3)cnn12 yielded IC50 of 1.3e-07 M

Value of measured IC50 for the entry Oc1cc(CCl)nc2c(-c3ccc(Sc4ccccc4)cc3)cnn12 : 3.1e-05 M

Form: molecule = Oc1c(-c2cccc(F)c2)cnc2c(-c3ccc(Sc4ccccc4)cc3)cnn12 ; IC50 = 1.2e-07 M

Data point: Oc1c(F)cnc2c(-c3ccc(Sc4ccccc4)cc3)cnn12 ; IC50 = 5.2e-08 M

For reference, reported IC50 for COc1cc(-c2cnn3c(O)ccnc23)ccc1Sc1ccccc1 stands at 1.5e-07 M

Notebook: Oc1ccnc2c(-c3ccc(Sc4ccccc4)cc3)cnn12 , IC50 read as 9e-08 M

Please fill in: IC50 reported for Cc1ccc(-c2cnc3c(-c4ccc(Sc5ccccc5)cc4)cnn3c2O)cc1 = 3.4e-07 M

Measured IC50 of Cc1nn2c(O)ccnc2c1-c1ccc(Sc2ccccc2)cc1 : 1.2e-06 M

Noted for Oc1c(C(O)C(F)(F)F)cnc2c(-c3ccc(Sc4ccccc4)cc3)cnn12 (stereo not shown) : its IC50 reads 1.6e-07 M

What the record says about Oc1ccccc1Cc1cnc2c(-c3ccc(Sc4ccccc4)cc3)cnn2c1O : IC50 is 1.6e-07 M

Looking up Oc1ccc(Cc2cnc3c(-c4ccc(Sc5ccccc5)cc4)cnn3c2O)cc1 , I see its IC50 listed as > 5e-06 M

The recorded IC50 for entry CC(C)c1cnc2c(-c3ccc(Sc4ccccc4)cc3)cnn2c1O equals 1.8e-07 M

IC50 recorded for this molecule, O=C(c1cnc2c(-c3ccc(Sc4ccccc4)cc3)cnn2c1O)C(F)(F)F , is 8.8e-07 M

IC50 reading for COc1ccc(-c2cnc3c(-c4ccc(Sc5ccccc5)cc4)cnn3c2O)cc1Br : > 5e-06 M

O=S(=O)(Nc1ccccc1)c1ccc(-c2cnn3c(O)ncnc23)cc1 has a reported IC50 of 4e-08 M

Looking up COCc1nn2c(O)ccnc2c1-c1ccc(Sc2ccccc2)cc1 , I found its IC50 recorded as > 5e-06 M

----------
Kindly supply the reported IC50 values for the records listed here.
measurementTarget: rat prostate androgen receptor (Rattus norvegicus, UniProt P15207)
Construct: the supernatant was obtained as cytoplasm fraction; from tissue; host or cells: cytosol (105000×g supernatant) of rat ventral prostate, 24 hours after castration
Sequence (P15207 1-902): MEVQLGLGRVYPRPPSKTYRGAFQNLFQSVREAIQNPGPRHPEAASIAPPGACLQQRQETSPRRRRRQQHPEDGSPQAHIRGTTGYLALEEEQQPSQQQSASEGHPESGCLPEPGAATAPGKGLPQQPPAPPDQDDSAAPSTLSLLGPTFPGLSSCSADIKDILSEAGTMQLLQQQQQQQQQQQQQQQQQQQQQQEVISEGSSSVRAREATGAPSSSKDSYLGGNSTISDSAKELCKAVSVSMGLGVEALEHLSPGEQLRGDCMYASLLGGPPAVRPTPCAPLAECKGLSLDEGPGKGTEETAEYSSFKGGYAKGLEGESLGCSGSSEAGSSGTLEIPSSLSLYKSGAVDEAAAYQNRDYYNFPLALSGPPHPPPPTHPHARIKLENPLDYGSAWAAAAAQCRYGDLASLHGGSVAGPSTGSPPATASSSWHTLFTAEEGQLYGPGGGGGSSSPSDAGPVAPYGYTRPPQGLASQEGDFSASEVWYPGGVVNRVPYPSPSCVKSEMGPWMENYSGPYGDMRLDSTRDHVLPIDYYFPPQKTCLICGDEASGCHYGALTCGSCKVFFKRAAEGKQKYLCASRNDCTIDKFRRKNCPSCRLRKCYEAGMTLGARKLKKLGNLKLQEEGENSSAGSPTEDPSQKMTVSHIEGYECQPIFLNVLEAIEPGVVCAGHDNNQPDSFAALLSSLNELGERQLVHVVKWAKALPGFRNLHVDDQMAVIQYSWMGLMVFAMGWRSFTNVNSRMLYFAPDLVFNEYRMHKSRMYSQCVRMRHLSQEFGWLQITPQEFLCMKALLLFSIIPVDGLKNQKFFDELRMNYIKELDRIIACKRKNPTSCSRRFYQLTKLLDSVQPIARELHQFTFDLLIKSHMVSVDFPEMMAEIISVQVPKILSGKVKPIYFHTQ
procedureText: inhibitory activity on binding of ^3 H-mibolerone on rat prostate androgen receptor
runParameters: ^3 H-mibolerone 1 nM, triamcinolone acetonide 5 μM, rat ventral prostate cytosol, 20 hours at 0° C.; read-out: Inhibitory activity on mibolerone specific binding [IC50 (M)]
State just the number; it will be interpreted in M.

For O=C(Nc1cc(Cl)c(Cl)c(Cl)c1)c1cnc2c(-c3ccc(Sc4ccccc4)cc3)cnn2c1O the compound record lists IC50 as 4e-07

Lab note: Oc1c(Br)cnc2c(-c3ccc(Sc4ccccc4)cc3)cnn12 gave IC50 of 8.8e-08

Lab note: measured IC50 of Oc1cc(C(F)(F)F)nc2c(-c3ccc(Sc4ccccc4)cc3)cnn12 was 2e-06

Entry Oc1ccccc1-c1cnc2c(-c3ccc(Sc4ccccc4)cc3)cnn2c1O — recorded IC50 = 7.4e-07

The compound listed as CCc1cc(O)n2ncc(-c3ccc(Sc4ccccc4)cc3)c2n1 shows IC50 equal to 9e-07

Per the record, Oc1cccc(-c2cnc3c(-c4ccc(Sc5ccccc5)cc4)cnn3c2O)c1 has IC50 of 1.4e-07

# compound Cc1cnc2c(-c3ccc(Sc4ccccc4)cc3)cnn2c1O ; its IC50 = 6.4e-08

In plain terms, Oc1cccc(Cc2cnc3c(-c4ccc(Sc5ccccc5)cc4)cnn3c2O)c1 has a documented IC50 of 1.2e-07

The value of IC50 measured for the compound Oc1c(-c2ccccc2)cnc2c(-c3ccc(Sc4ccccc4)cc3)cnn12 turned out to be 5.8e-08

Value of IC50 reported for the compound Oc1c(-c2ccccc2F)cnc2c(-c3ccc(Sc4ccccc4)cc3)cnn12 is 1.45e-07

Measured IC50 of Oc1c(C(O)c2ccccc2)cnc2c(-c3ccc(Sc4ccccc4)cc3)cnn12 (stereo not drawn) : 4.6e-07

Note to self: IC50 recorded for CC(C)(C)NC(=O)c1cnc2c(-c3ccc(Sc4ccccc4)cc3)cnn2c1O was 1.7e-07

IC50 measured on CC(C)c1cc(O)n2ncc(-c3ccc(Sc4ccccc4)cc3)c2n1 = 1.3e-05

The reported IC50 of the compound Oc1ccc(-c2cnc3c(-c4ccc(Sc5ccccc5)cc4)cnn3c2O)cc1 was 1.6e-07

# compound O=C(O)c1cnc2c(-c3ccc(Sc4ccccc4)cc3)cnn2c1O ; its IC50 = 5.8e-08

Input CC(=O)c1cnc2c(-c3ccc(Sc4ccccc4)cc3)cnn2c1O . Output IC50: 3.4e-08

// field: IC50; key: Oc1c(-c2ccc(F)cc2)cnc2c(-c3ccc(Sc4ccccc4)cc3)cnn12 ; value = 6.6e-08

Form field IC50, entry Oc1cc(C2CC2)nc2c(-c3ccc(Sc4ccccc4)cc3)cnn12 : 1.7e-06

Per the record, COc1ccccc1Cc1cnc2c(-c3ccc(Sc4ccccc4)cc3)cnn2c1O has IC50 of 3.2e-07
